Test: The compound was evaluated for inhibition of Glutaminyl-tRNA synthetase with respect to glutamine.
Measured Metric: Ki

q: Item NC(=O)CCC(N)COP(=O)(O)OC[C@H]1OC(n2cnc3c(N)ncnc32)[C@H](O)[C@@H]1O (stereo partly specified) has what recorded Ki?
a: 280 nM
